molecular target: HAdV-C5 hexon (Human adenovirus C serotype 5, UniProt P04133); construct: the top phase containing soluble viral components was recovered, and HAdV hexons were purified using monoclonal hexon antibodies; made in house; host or cells: A549 cells infected with wild-type HAdV-C5 (strain Ad75); test: Surface plasmon resonance, HAdV-C5 hexon immobilized; type: binding; settings: SPR Biacore T200, HAdV-C5 hexon on CM5 chip, analyte hLfcin1-49, 2-fold series 8 nM to 2 μM, HBS-EP+ pH 7.4, 25°C; average from three independent measurements
Sequence (P04133 2-952 limits assumed): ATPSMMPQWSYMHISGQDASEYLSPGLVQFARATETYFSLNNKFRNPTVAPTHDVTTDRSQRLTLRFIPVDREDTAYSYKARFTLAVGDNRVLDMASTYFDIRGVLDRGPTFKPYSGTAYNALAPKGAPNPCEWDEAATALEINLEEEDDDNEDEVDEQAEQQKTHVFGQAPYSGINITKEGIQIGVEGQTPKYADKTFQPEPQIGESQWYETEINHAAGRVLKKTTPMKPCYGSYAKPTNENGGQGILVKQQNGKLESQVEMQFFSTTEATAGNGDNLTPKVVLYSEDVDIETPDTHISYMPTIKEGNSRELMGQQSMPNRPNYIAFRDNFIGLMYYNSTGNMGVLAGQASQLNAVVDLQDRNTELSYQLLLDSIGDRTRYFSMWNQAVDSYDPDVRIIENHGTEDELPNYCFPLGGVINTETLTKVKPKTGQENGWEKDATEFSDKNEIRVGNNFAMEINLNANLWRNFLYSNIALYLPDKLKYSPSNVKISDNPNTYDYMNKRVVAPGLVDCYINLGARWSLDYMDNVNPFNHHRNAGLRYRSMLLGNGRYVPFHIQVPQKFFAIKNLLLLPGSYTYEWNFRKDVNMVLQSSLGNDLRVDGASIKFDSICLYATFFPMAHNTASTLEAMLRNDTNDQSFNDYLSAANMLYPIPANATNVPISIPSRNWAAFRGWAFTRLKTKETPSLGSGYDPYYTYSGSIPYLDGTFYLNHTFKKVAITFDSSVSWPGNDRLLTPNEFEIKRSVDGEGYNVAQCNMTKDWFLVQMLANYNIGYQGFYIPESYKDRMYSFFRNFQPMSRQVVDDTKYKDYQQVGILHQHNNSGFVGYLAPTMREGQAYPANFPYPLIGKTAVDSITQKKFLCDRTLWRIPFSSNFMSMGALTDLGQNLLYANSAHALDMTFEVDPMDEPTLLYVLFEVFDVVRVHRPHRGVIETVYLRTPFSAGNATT
Bridges are numbered along the chain shown (N, C = ends). Where no end group is shown, it is not given here.
readoutName: Kd (nM)
Entry rule: numbers only, all in nM.

Ask: // fetch Kd given entry GRRRRSVQWCAVSQPEATKCFQWQRNMRKVRGPPVSCIKRDSPIQCIQA (disulfide 10-46, 20-37) [hLfcin1-49, human lactoferricin]
Reply: 730
